- Read-out: Human Leukocyte Antigen - DR isotype (HLADR), HLA-DRA (gene 3122)
- procedure summary: BSK_3C_HLADR: BioMAP Diversity Plus: 3C Assay for Human Leukocyte Antigen - DR isotype (HLADR) Biomarker Activity (AID 2283019)
- measurement parameters: primary human endothelial cells (HUVEC); actives raise or lower the signal
- Description: BSK_3C is a cell-based, multiplexed-readout assay that uses umbilical vein endothelium, a human vascular primary cell, with measurements taken at 24 hours after chemical dosing in a 96-well plate.BSK_3C_HLADR is an assay component measured in the BSK_3C assay. It measures HLA-DR antibody related to regulation of gene expression using ELISA technology.Data from the assay component BSK_3C_HLADR was analyzed into 1 assay endpoint. […]
Activity calls are given as the source filed them. Rule for the calls: active = hit-call score of the fitted dose curve at least 0.9, where 1 is the maximum; inactive = score below 0.9.
observable: AC50

In [3]: df
Out[3]:
                                test_smiles      assay_result
0  CC(C)(C)c1csc(-c2cc3cc(OCc4ccccc4CC(=O)O)ccc3o2)n1  17.3 µM (active)
1  O=C(O)c1ccccc1-n1cc(C(=O)O)c(=O)c2cc(Nc3c(F)cc(F)cc3Cl)c(Cl)cc21          inactive
2                          O=c1ccc2ccccc2o1          inactive

###

- Read-out: Cytochrome P450 (CYP2B6), CYP2B6 (gene 1555)
- procedure summary: LTEA_HepaRG_CYP2B6: Life Technologies and Expression Analysis (LTEA) Assay for Cytochrome P450 (CYP2B6) using HepaRG (AID 2283481)
- measurement parameters: mRNA level, 48 h; actives raise or lower the signal
The source made the active and inactive calls. Rule for the calls: active = hit-call score of the fitted dose curve at least 0.9, where 1 is the maximum; inactive = score below 0.9.
Give your call using only these classes: y (active), n (inactive)

### Prompt Call for entry `CCCCCCCCCCCCO` :
### Response n

### Prompt Entry `CC1(C)NC(=O)N(c2ccc([N+](=O)[O-])c(C(F)(F)F)c2)C1=O` please
### Response y

### Prompt Entry `Cc1cc2c(cc1C(F)(F)F)N(C(=O)Nc1ccc(Oc3cccnc3C)nc1)CC2` please
### Response y

### Prompt Entry `COc1cc(C(=O)NC2CCN(C)CC2)ccc1Nc1ncc2c(n1)N(C1CCCC1)CC(F)(F)C(=O)N2C` please
### Response y

### Prompt Entry `Cc1cccc2ccccc12` please
### Response n

### Prompt Entry `CCCOC(=O)c1cc(O)c(O)c(O)c1` please
### Response y

### Prompt Entry `O=C(O)c1ccccc1C(=O)OCc1ccccc1` please
### Response n

### Prompt Entry `CN(C)C(=O)C1(N2CCCCC2)CCN(CC[C@@]2(c3ccc(Cl)c(Cl)c3)CN(C(=O)c3ccccc3)CCO2)CC1` please
### Response y

### Prompt Entry `c1ccc2n[nH]nc2c1` please
### Response n

### Prompt Entry OC12N=C(c3ccccc3)SC1Cc1cc(Cl)ccc12 (centres undefined) please
### Response y

### Prompt Entry `CCCCCCCCCCCC[N+](C)(C)C` please
### Response y

### Prompt Entry `Cc1ccc2oc(CN(Cc3ccccc3)C(=O)Nc3c(F)cc(F)cc3F)c(-c3ccc(Cl)cc3)c2c1` please
### Response y

### Prompt Entry `O=CCCCC=O` please
### Response n

### Prompt Entry `CCCCCCCCN(C)CCCCCCCC` please
### Response n

### Prompt Entry `CC/C(=C(/CC)c1ccc(O)cc1)c1ccc(O)cc1` please
### Response y

### Prompt Entry COCC(C)OCC(C)OCC(C)O (centres undefined) please
### Response y

### Prompt Entry `Cc1ncc(CO)c(CO)c1O` please
### Response n

### Prompt Entry `O=C(O)Cn1c(=O)n(Cc2ccc(Br)cc2F)c(=O)c2ccc(Cl)cc21` please
### Response y

### Prompt Entry `CO[C@H]1/C=C/O[C@@]2(C)Oc3c(C)c(O)c4c(O)c(c(/C=N/N5CCN(C)CC5)c(O)c4c3C2=O)NC(=O)/C(C)=C\C=C\[C@H](C)[C@H](O)[C@@H](C)[C@@H](O)[C@@H](C)[C@H](OC(C)=O)[C@@H]1C` please
### Response y

### Prompt Entry `CCCCOC(=O)CC(CC(=O)OCCCC)(OC(C)=O)C(=O)OCCCC` please
### Response n

### Prompt Entry `CCOC(=O)O[C@H](C)OC(=O)c1ccc2c(c1)cc(C(=O)NC1CCN(C(C)C)CC1)n2Cc1cc(-c2ccc(Cl)s2)on1` please
### Response n

### Prompt Entry CN1C(=O)N(c2ccccc2Br)Cc2cnc(Nc3ccc4c(c3)OCC(CO)O4)nc21 (centres undefined) please
### Response y

### Prompt Entry `Oc1ccccc1` please
### Response n

### Prompt Entry `Oc1ccc2ccccc2c1` please
### Response n

###

- Read-out: Lipase C (LIPC), LIPC (gene 3990)
- procedure summary: LTEA_HepaRG_LIPC: Life Technologies and Expression Analysis (LTEA) Assay for Lipase C (LIPC) using HepaRG (AID 2283514)
- measurement parameters: mRNA level, 48 h; actives raise or lower the signal
Calls of active or inactive are those of the source. Rule for the calls: active = hit-call score of the fitted dose curve at least 0.9, where 1 is the maximum; inactive = score below 0.9.
Give your call using only these classes: 1 (active), 0 (inactive)

### Prompt Call for entry `Oc1ccccc1` :
### Response 0

### Prompt Entry `CCCCOC(=O)c1ccc(O)cc1` please
### Response 0

### Prompt Entry `Cc1ncc(CO)c(CO)c1O` please
### Response 0

### Prompt Entry `Cc1ccc(C(C)C)cc1` please
### Response 0

### Prompt Entry CC(O)CC(C)(C)O (configuration not stated) please
### Response 0

### Prompt Entry `CCN(Cc1cccc(S(=O)(=O)O)c1)c1ccc(C(=C2C=CC(=[N+](CC)Cc3cccc(S(=O)(=O)O)c3)C=C2)c2ccccc2S(=O)(=O)[O-])cc1` please
### Response 0

### Prompt Entry `COc1cccc([C@H](O)C2CCN(CCc3ccc(F)cc3)CC2)c1OC` please
### Response 0

### Prompt Entry `CO[C@H]1/C=C/O[C@@]2(C)Oc3c(C)c(O)c4c(O)c(c(/C=N/N5CCN(C)CC5)c(O)c4c3C2=O)NC(=O)/C(C)=C\C=C\[C@H](C)[C@H](O)[C@@H](C)[C@@H](O)[C@@H](C)[C@H](OC(C)=O)[C@@H]1C` please
### Response 0

### Prompt Entry `c1ccc(C[n+]2cccc3ccccc32)cc1` please
### Response 1

### Prompt Entry `CCCCCCCCCCCC[N+](C)(C)C` please
### Response 1

### Prompt Entry `O=c1[nH]sc2ccccc12` please
### Response 0

### Prompt Entry `CCCCCCCC[Si](OCC)(OCC)OCC` please
### Response 0

### Prompt Entry `CC(C)(C)c1cc(/C=C2\SC(N)=NC2=O)cc(C(C)(C)C)c1O` please
### Response 0

### Prompt Entry `CC(C)(O)c1ccc(CNC(=O)c2cccnc2Oc2ccc3nonc3c2)cc1` please
### Response 0

### Prompt Entry `Cc1ccc2oc(CN(Cc3ccccc3)C(=O)Nc3c(F)cc(F)cc3F)c(-c3ccc(Cl)cc3)c2c1` please
### Response 1

### Prompt Entry `O=C(O)Cn1c(=O)n(Cc2ccc(Br)cc2F)c(=O)c2ccc(Cl)cc21` please
### Response 0

### Prompt Entry `Cc1cc(F)ccc1-c1cc(N2CC[C@@H](O)[C@H]2CO)ncc1N(C)C(=O)C(C)(C)c1cc(C(F)(F)F)cc(C(F)(F)F)c1` please
### Response 1

### Prompt Entry `CCCCCCCCOc1ccc(C(=O)c2ccccc2)c(O)c1` please
### Response 0

### Prompt Entry `CCCCCCCCCC(=O)O` please
### Response 0

### Prompt Entry `CCCCCc1ccc(N)cc1` please
### Response 0

### Prompt Entry `Clc1ccccc1C(c1ccccc1)(c1ccccc1)n1ccnc1` please
### Response 1

### Prompt Entry `O=C(O)c1ccccc1C(=O)OCc1ccccc1` please
### Response 0

###

- procedure summary: TOX21_p53_BLA_p5_viability: Viability Assessment in the Tox21 HCT-116 p53 Agonism Beta-lactamase Assay, Phase 5 (AID 2283600)
Results filed as inconclusive are left out. Active and inactive are the calls of the source. How the source made its calls: active means hit-call score of the fitted dose curve at least 0.9, where 1 is the maximum; inconclusive means response in the unintended direction; inactive means score below 0.9.
Give your call using only these classes: active, inactive

### Prompt Call for entry `c1ccc2ccccc2c1` :
### Response inactive

### Prompt Entry `CC(C)(C)c1csc(-c2cc3cc(OCc4ccccc4CC(=O)O)ccc3o2)n1` please
### Response inactive

### Prompt Entry `CCN(CC)C(=O)c1cc(S(=O)(=O)Cc2ccccc2)c(N2CCC(c3ccccc3)CC2)cc1N(CC)CCN(C)C` please
### Response active

### Prompt Entry `CC1=CC(=O)/C(=C(/C)O)C(=O)O1` please
### Response inactive

### Prompt Entry `O=c1ccc2ccccc2o1` please
### Response inactive

### Prompt Entry `CCOC(=O)O[C@H](C)OC(=O)c1ccc2c(c1)cc(C(=O)NC1CCN(C(C)C)CC1)n2Cc1cc(-c2ccc(Cl)s2)on1` please
### Response active

### Prompt Entry `O=C(Nc1ccc(Cl)cc1)Nc1ccc(Cl)c(Cl)c1` please
### Response inactive

### Prompt Entry `Cc1c2ccccc2c(C)c2c1ccc1ccccc12` please
### Response inactive

### Prompt Entry `Oc1ccccc1` please
### Response inactive

### Prompt Entry `Cc1occc1C(=O)Nc1ccc(C(=O)N2CCC(F)(F)/C(=C\C(=O)N3CCC(N4CCCCC4)CC3)c3ccccc32)cc1` please
### Response inactive

### Prompt Entry `CC1(C)NC(=O)N(c2ccc([N+](=O)[O-])c(C(F)(F)F)c2)C1=O` please
### Response inactive

### Prompt Entry `COc1cccc([C@H](O)C2CCN(CCc3ccc(F)cc3)CC2)c1OC` please
### Response inactive

### Prompt Entry CN1C(=O)N(c2ccccc2Br)Cc2cnc(Nc3ccc4c(c3)OCC(CO)O4)nc21 (stereo not drawn) please
### Response inactive
